Target: human ETB receptor (Homo sapiens)
Construct: expressed in transfected cells; host or cells: CHO-K1 cells, pRc-CMW (so in the source) expression vector, electroporation; membranes used
Sequence (P24530 27-442): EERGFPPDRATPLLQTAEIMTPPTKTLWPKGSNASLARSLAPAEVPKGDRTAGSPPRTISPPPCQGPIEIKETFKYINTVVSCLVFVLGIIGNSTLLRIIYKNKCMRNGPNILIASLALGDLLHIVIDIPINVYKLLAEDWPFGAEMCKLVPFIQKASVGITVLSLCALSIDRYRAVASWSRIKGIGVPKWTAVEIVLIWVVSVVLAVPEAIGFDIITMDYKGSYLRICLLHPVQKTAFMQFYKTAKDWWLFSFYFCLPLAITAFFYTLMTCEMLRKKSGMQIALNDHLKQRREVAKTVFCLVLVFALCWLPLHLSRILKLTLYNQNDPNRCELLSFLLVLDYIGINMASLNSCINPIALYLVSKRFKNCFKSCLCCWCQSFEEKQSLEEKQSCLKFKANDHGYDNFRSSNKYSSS
Test: ERBA-B: [125I]-ET-1 binding, recombinant human ETB receptor expressed in CHO-K1 cells
Conditions: human cloned ETB receptor, read-out: ERBA-B IC50, human cloned receptor data
pIC50: −log10 of the molar value.
Use 6 as the dividing line for pIC50, with the line itself on the condition met side and lower values as condition not met.

INSERT INTO results (molecule, answer_label) VALUES
  ('COc1ccc(C2(O)OC(=O)C(c3ccc4c(c3)OCO4)=C2Cc2cccc(C)c2)cc1 (stereo not shown)', 'condition not met'),
  ('CCCCCCCCOc1ccc(CC2=C(c3cc(OC)cc(OC)c3)C(=O)OC2(O)c2ccc(OC)cc2)cc1OC (stereo not shown)', 'condition met'),
  ('COc1ccc(C2(O)OC(=O)C(c3ccc4c(c3)OCO4)=C2CC2=CC[C@H]3C[C@@H]2C3(C)C)cc1 (stereo partly shown)', 'condition not met'),
  ('O=C(O)/C(=C(/Cc1ccccc1)C(=O)c1ccc(-n2ccnc2)cc1)c1ccc2c(c1)OCO2', 'condition not met');

----------
Molecular target: UniProt:P21451
Sequence (P21451 27-442): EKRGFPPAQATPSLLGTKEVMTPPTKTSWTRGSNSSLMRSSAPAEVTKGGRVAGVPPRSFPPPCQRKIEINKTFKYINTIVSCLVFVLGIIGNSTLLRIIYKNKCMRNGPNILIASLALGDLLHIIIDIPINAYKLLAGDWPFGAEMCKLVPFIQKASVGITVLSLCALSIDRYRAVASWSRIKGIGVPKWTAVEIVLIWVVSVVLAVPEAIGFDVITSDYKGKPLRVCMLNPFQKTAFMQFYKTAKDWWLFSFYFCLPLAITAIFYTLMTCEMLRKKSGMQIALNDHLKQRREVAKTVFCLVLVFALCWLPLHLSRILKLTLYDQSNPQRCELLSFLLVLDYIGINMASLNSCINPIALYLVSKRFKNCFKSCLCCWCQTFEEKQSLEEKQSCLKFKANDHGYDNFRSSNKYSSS
reported-property: IC50 (µM)

INSERT INTO measurements (compound, reported_property, measured_result) VALUES
  ('COc1ccc(C2=C(Cc3ccccc3)C(O)(c3ccc(Cl)cc3)OC2=O)cc1OC (racemic) [Example 67]', 'IC50', 6.3),
  ('CN(C)c1ccc(CC2=C(c3ccc(N(C)C)cc3)C(=O)OC2(O)c2ccc(Cl)cc2)cc1 (racemic) [Example 55]', 'IC50', 21),
  ('O=C1OC(O)(c2ccc(Cl)cc2)C(Cc2ccsc2)=C1c1ccc2c(c1)OCO2 (stereo not shown) [Example 48]', 'IC50', 6.2),
  ('CCCOc1cccc(CC2=C(c3cccc(OC)c3)C(=O)OC2(O)c2ccc(OC)cc2)c1 (stereo not shown) [Example 154]', 'IC50', 2.1),
  ('COc1ccc(C2(O)OC(=O)C(c3cn(C)c4ccccc34)=C2Cc2ccccc2)cc1 (stereo not shown) [Example 170]', 'IC50', 0.9),
  ('COc1ccc(C2(O)OC(=O)C(c3cccc(OC)c3)=C2Cc2ccccc2)cc1 (stereo not shown) [Example 153]', 'IC50', 2),
  ('COc1ccc(C2(O)OC(=O)C(c3ccc4c(c3)OCO4)=C2Cc2cccc(C(F)(F)F)c2)cc1 (stereo not shown) [Example 82]', 'IC50', 1.3),
  ('Cn1cc(CC2=C(c3ccc4c(c3)OCO4)C(=O)OC2(O)c2ccc(Cl)cc2)c2ccccc21 (racemic) [Example 66]', 'IC50', 7.4),
  ('COc1ccc(C2(O)OC(=O)C(c3ccc4c(c3)OCO4)=C2Cc2cccc(Cl)c2)cc1 (stereo not shown) [Example 75]', 'IC50', 1.2),
  ('O=C1OC(O)(c2ccccc2)C(Cc2ccccc2)=C1c1ccc2c(c1)OCO2 (stereo not shown) [Example 24]', 'IC50', 26),
  ('C=CCOc1cc(OC)ccc1C1(O)OC(=O)C(c2ccc3c(c2)OCO3)=C1Cc1ccccc1 (stereo not shown) [Example 329]', 'IC50', 0.11),
  ('O=C1OC(O)(c2ccc(Cl)cc2)C(Cc2ccccc2)=C1c1ccc2c(c1)OCO2 (stereo not shown) [Example 39]', 'IC50', 4.2),
  ('Cc1ccccc1C1(O)OC(=O)C(c2ccc3c(c2)OCO3)=C1Cc1ccccc1 (stereo not shown) [Example 216]', 'IC50', 8),
  ('COc1ccc(C2=C(Cc3ccc4c(c3)OCO4)C(O)(c3ccc(Cl)cc3)OC2=O)cc1OC (racemic) [Example 65]', 'IC50', 6),
  ('O=C1OC(O)(c2ccc(Cl)cc2)C(Cc2ccc3c(c2)OCO3)=C1c1ccc2c(c1)OCO2 (racemic) [Example 46]', 'IC50', 6.4),
  ('COc1ccc(C(=O)/C(Cc2ccccc2)=C(\C(=O)O)c2ccc3c(c2)OCO3)cc1 [Example 171]', 'IC50', 2.2);

Every entry's value here was drawn from patent US5691373A.
